# System: HepG2
# testDescription: Antiproliferative activity against human HepG2 cells after 48 hrs by sulforhodamine B assay
# Assay type: functional
# testSettings: HepG2, 48 h
measurementType: GI50 (µM)

Below: 9 compounds and their reported GI50.
{"inputSmiles": "COc1cc(-c2ncccc2-c2nc3ccccc3s2)cc(OC)c1OC", "measuredTarget": "HepG2", "measurementType": "GI50", "unitOfMeasure": "µM", "numericResult": 3.5}
{"inputSmiles": "FC(F)(F)c1ccc(Cl)c(-c2ncccc2-c2nc3ccc(Cl)cc3s2)c1", "measuredTarget": "HepG2", "measurementType": "GI50", "unitOfMeasure": "µM", "numericResult": 1.2}
{"inputSmiles": "COc1ccc2nc(-c3cccnc3-c3cc(OC)c(OC)c(OC)c3)[nH]c2c1", "measuredTarget": "HepG2", "measurementType": "GI50", "unitOfMeasure": "µM", "numericResult": 0.84}
{"inputSmiles": "COc1cc2nc(-c3cccnc3-c3cc(OC)c(OC)c(OC)c3)sc2cc1OC", "measuredTarget": "HepG2", "measurementType": "GI50", "unitOfMeasure": "µM", "numericResult": 0.5}
{"inputSmiles": "COc1ccc(-c2ncccc2-c2nc3cc(OC)c(OC)cc3s2)cc1OC", "measuredTarget": "HepG2", "measurementType": "GI50", "unitOfMeasure": "µM", "numericResult": 1.2}
{"inputSmiles": "COc1ccc(-c2ncccc2-c2nc3cc(OC)c(OC)cc3[nH]2)cc1", "measuredTarget": "HepG2", "measurementType": "GI50", "unitOfMeasure": "µM", "numericResult": 42.5}
{"inputSmiles": "COc1cc(-c2ncccc2-c2nc3ccccc3[nH]2)cc(OC)c1OC", "measuredTarget": "HepG2", "measurementType": "GI50", "unitOfMeasure": "µM", "numericResult": 3.5}
{"inputSmiles": "COc1cc2nc(-c3cccnc3-c3cc(OC)c(OC)c(OC)c3)[nH]c2cc1OC", "measuredTarget": "HepG2", "measurementType": "GI50", "unitOfMeasure": "µM", "numericResult": 1.5}
{"inputSmiles": "COc1ccc2nc(-c3cccnc3-c3cc(C(F)(F)F)ccc3Cl)sc2c1", "measuredTarget": "HepG2", "measurementType": "GI50", "unitOfMeasure": "µM", "numericResult": 0.079}

A. COc1ccc(/C=C\c2cc(OC)c(OC)c(OC)c2)cc1O
B. COc1ccc(-c2ncccc2-c2nc3ccc(Cl)cc3s2)cc1
Query: Choose between A and B : whose measured GI50 value is numerically larger? In your reply, give the label of the chosen option.
Response: B

Hello, the source for this data is ChEMBL document CHEMBL4477265, in case you need it.
